# System: Reduced glutathione in salivary gland cell clusters (SGm)
# assay comment: Glutathione assay in salivary gland tissue chip, 4 days post-radiation (15 Gy); also first screen of Selleck library at 100 μM
# Format: cell-based, mouse
# conditions: first screen of Selleck library at 100 μM, 15 Gy, 4 days post-radiation
# Description: A salivary gland tissue chip was leveraged for high-content drug screening to identify novel radioprotective compounds (Song Y et al., Commun Biol., 2021, 4). […] The glutathione assay was used to measure glutathione levels at various time points post-radiation to determine the optimal time point for detecting differences between 0 Gy and 15 Gy. Based on the data, the greatest signal separation was measured at 4 days post-irradiation (FIG. 9). […]
# binarize Glutathione normalized mean intensity: threshold 0.4 inclusive, high side condition met, low side condition not met

Is Glutathione normalized mean intensity for [I-].[K+] [Potassium iodide] at or above 0.4?
condition not met

Say whether Cc1nnc(NS(=O)(=O)c2ccc(N)cc2)s1 shows Glutathione normalized mean intensity of 0.4 or more.
condition met

Is it the case that COc1ccc(C(=O)CC(=O)c2ccc(C(C)(C)C)cc2)cc1 has Glutathione normalized mean intensity reaching or exceeding 0.4?
condition met

Reported Glutathione normalized mean intensity at or above 0.4? CC1=CC(=O)c2ccccc2C1=O
condition met

Is reported Glutathione normalized mean intensity greater than or equal to 0.4 here: O=c1c(-c2ccc(O)cc2)coc2cc(O)ccc12
condition met

* * *

# Test system: Reduced glutathione in salivary gland cell clusters (SGm)
# assay comment: Glutathione assay in salivary gland tissue chip, 4 days post-radiation (15 Gy); also first screen of Selleck library at 100 μM
# Type: cell-based, mouse
# conditions: first screen of Selleck library at 100 μM, 15 Gy, 4 days post-radiation
Where a name gives a salt, the structure may show the parent alone.
Task for the reader: assign each of the following molecules its reported Glutathione normalized mean intensity.
// print number alone

The molecule listed as Cc1cnc(C(=O)O)c[n+]1[O-] shows Glutathione normalized mean intensity equal to 1.03

GET /value?item= NC(=O)c1ncn([C@@H]2O[C@H](CO)[C@@H](O)[C@H]2O)c1N &field=Glutathione normalized mean intensity returns 0.3637

// field: Glutathione normalized mean intensity; key: COc1ccccc1OCC(O)CN1CCN(CC(=O)Nc2c(C)cccc2C)CC1 (centres unmarked) [Ranolazine (Ranexa)] ; value = 0.5015

CCCOc1ccc(C(=O)OCCN(CC)CC)cc1N [Proparacaine HCl] yielded Glutathione normalized mean intensity of 0.7045

Record CN=C(NC#N)NCCSCc1nc[nH]c1C . Reported Glutathione normalized mean intensity: 0.9597

Memo: CCC(C)(C)C(=O)O[C@H]1C[C@@H](C)C=C2C=C[C@H](C)[C@H](CC[C@@H]3C[C@@H](O)CC(=O)O3)[C@H]21 [Simvastatin (Zocor)] , reported Glutathione normalized mean intensity: 0.1568

So, CC(=O)OCC(=O)[C@@]12N=C(C)O[C@@H]1C[C@H]1[C@@H]3CCC4=CC(=O)C=C[C@]4(C)[C@H]3[C@@H](O)C[C@@]12C ? Its Glutathione normalized mean intensity was 0.5114

Glutathione normalized mean intensity reported for this molecule NC(=O)c1cccnc1 [Nicotinamide (Niacinamide)] : 0.6872

The molecule O=P(O)(O)C(O)(Cc1cccnc1)P(=O)(O)O showed Glutathione normalized mean intensity equal to 0.6565

The recorded Glutathione normalized mean intensity for entry CNC(=C[N+](=O)[O-])NCCSCc1csc(CN(C)C)n1 equals 0.5754

Looking up O=c1[nH]c(=O)n([C@H]2C[C@H](O)[C@@H](CO)O2)cc1I , I found its Glutathione normalized mean intensity recorded as 0.7701

Entry under test: CC(C)C(=O)Nc1ccc([N+](=O)[O-])c(C(F)(F)F)c1 [Flutamide (Eulexin)] . Its Glutathione normalized mean intensity was 0.6406

GET /value?item= Clc1ccc(CCC(Cn2ccnc2)Sc2c(Cl)cccc2Cl)cc1 (centres unmarked) [Butoconazole nitrate] &field=Glutathione normalized mean intensity returns 0.6197

The molecule listed as COc1ccc(CC2c3cc(OC)c(OC)cc3CC[N+]2(C)CCC(=O)OCCCCCOC(=O)CC[N+]2(C)CCc3cc(OC)c(OC)cc3C2Cc2ccc(OC)c(OC)c2)cc1OC (centres unmarked) [Atracurium besylate] has a reported Glutathione normalized mean intensity of 0.6611

Short answer for COc1ccccc1OCCNCC(O)COc1cccc2[nH]c3ccccc3c12 (centres unmarked) : Glutathione normalized mean intensity was 0.9878

Glutathione normalized mean intensity recorded for this molecule, Nc1nc(O)c2ncn(COC(CO)CO)c2n1 , is 0.5803

Kindly note the recorded Glutathione normalized mean intensity for CN(C)CCC(c1ccc(Cl)cc1)c1ccccn1 (centres unmarked) [Chlorpheniramine Maleate] , which is 1.145
